System: MOLT-4 leukemia
Assay: NCI-60 one-dose screen, 48 h (100 = growth as untreated, 0 = no growth, -100 = all killed)
Details: 10 µM unless noted
This is part of a sample that, as a whole, favours compounds with a hit. Of some 83,000 tested, about 20% had one in any assay. Active and inactive are the calls of the source. The calls were made as follows: active = growth percent below 10; inactive = the rest.
growth overview

{"Compound": "O=C(NC(Cc1nnc2n(Cc3ccccc3)c(=O)c3c4c(sc3n12)CCCC4)c1ccc(Cl)cc1)c1ccccc1 (stereo not drawn)", "Test result": "53.1% (inactive)"}
{"Compound": "CN1CCN(C(=O)c2c3c(n4ccccc24)C(=O)c2ncccc2C3=O)CC1", "Test result": "103% (inactive)"}
{"Compound": "COc1cc(/C=N/Nc2ncc(-c3cc4cc5c(cc4o3)OCO5)s2)cc(OC)c1OC", "Test result": "18.6% (inactive)"}

The recorded growth for entry N=C1C(c2nc(-c3ccc(Br)cc3)cs2)=C(O)CN1CC1CCCO1 (stereo not drawn) equals 70.3% (inactive)

The recorded growth for entry CC(=O)N1C(=S)NC(=O)C1Cn1c(-c2ccccc2)nc2ccccc21 (stereo not drawn) equals 96.5% (inactive)

The recorded growth for entry c1coc(-c2c3ccc(=[N+]4CCCCC4)cc-3oc3cc(N4CCCCC4)ccc23)c1 equals -43% (active)

The recorded growth for entry COc1cccc2c1C(=O)c1c(O)c3c(c(O)c1C2=O)CC(O)(/C(C)=N/NC(=O)CCCCC(=O)N/N=C(\C)C1(O)Cc2c(O)c4c(c(O)c2C(OC2CC(N)C(O)C(C)O2)C1)C(=O)c1c(OC)cccc1C4=O)CC3OC1CC(N)C(O)C(C)O1 (stereo not drawn) equals -46.8% [5 µM] (active)

The recorded growth for entry c1ccc(Nc2nc(-c3ccccn3)cs2)nc1 equals 14.2% (inactive)
